- Protocol Description: activity coefficient (dimensionless); of the first substance listed, at infinite dilution; xn = mol fraction of the nth substance listed
- Test Settings: 308.15 K; Liquid; Chromatography; x1 = 0
Each record is given true if its reported activity coefficient is strictly below 3. Records at or above 3 are given false.

Task: Please check: activity coefficient for c1ccsc1 [thiophene] + CCCC[N+]1(C)CCCC1.O=S(=O)([O-])C(F)(F)F , strictly under 3 or not?
Result: true

Task: Please check: activity coefficient for CO [methanol] + CCCC[N+]1(C)CCCC1.O=S(=O)([O-])C(F)(F)F , strictly under 3 or not?
Result: true

Task: Please check: activity coefficient for CCO [ethanol] + CCCC[N+]1(C)CCCC1.O=S(=O)([O-])C(F)(F)F , strictly under 3 or not?
Result: true

Task: Please check: activity coefficient for C#CCCCC [1-hexyne] + CCCC[N+]1(C)CCCC1.O=S(=O)([O-])C(F)(F)F , strictly under 3 or not?
Result: false

Task: Please check: activity coefficient for CCCCCCCCCC [decane] + CCCC[N+]1(C)CCCC1.O=S(=O)([O-])C(F)(F)F , strictly under 3 or not?
Result: false

Task: Please check: activity coefficient for C=CCCCCC [1-heptene] + CCCC[N+]1(C)CCCC1.O=S(=O)([O-])C(F)(F)F , strictly under 3 or not?
Result: false

Task: Please check: activity coefficient for CCc1ccccc1 [ethylbenzene] + CCCC[N+]1(C)CCCC1.O=S(=O)([O-])C(F)(F)F , strictly under 3 or not?
Result: false

Task: Please check: activity coefficient for C1CCCC1 [cyclopentane] + CCCC[N+]1(C)CCCC1.O=S(=O)([O-])C(F)(F)F , strictly under 3 or not?
Result: false

Task: Please check: activity coefficient for CCCO [propan-1-ol] + CCCC[N+]1(C)CCCC1.O=S(=O)([O-])C(F)(F)F , strictly under 3 or not?
Result: true

Task: Please check: activity coefficient for CCCCCCC [heptane] + CCCC[N+]1(C)CCCC1.O=S(=O)([O-])C(F)(F)F , strictly under 3 or not?
Result: false
